FYI, the data here is from ChEMBL document CHEMBL4359834.

assayed.system: Serine/threonine-protein kinase mTOR (Homo sapiens)
experimental.protocol: Displacement of Alexafluor labelled kinase tracer314 from recombinant human C-terminal GST-tagged mTOR (1360 to 2549 amino acids) expressed in insect cells incubated for 1 hr by FRET-based LanthaScreen Eu kinase binding assay
pKi: −log10 of the molar value.
value.type: pKi

Record excerpt, results attached:
Nc1cc(C(F)(F)F)c(-c2nc(N3CCOCC3)nc(N3CC4CCC(C3)O4)n2)cn1 : 7.32
Nc1cc(C(F)(F)F)c(-c2nc(N3C4CCC3COC4)nc(N3C4CCC3COC4)n2)cn1 : 7.11

I = C[C@H]1COCCN1c1cc(-c2cnc(N)cc2C(F)F)nc(N2CCOCC2)n1
II = C[C@H]1COCCN1c1nc(-c2cnc(N)nc2C(F)F)nc(N2CCOCC2)n1
Field: entry with larger pKi (options I / II ). // caller expects the label of the chosen entry
II
(II: 7.97, I: 7.37)

----------
experimental.protocol: Terminal half-life in C57BL/6J mouse thigh muscle at 50 mg/kg, po administered as single dose by LC-MS analysis
Format: ADME, organism-based
measurement.parameters: read-out: beta t1/2 (converted)
value.type: half-life (h)
Report the value in h with no unit label.

Need half-life of C[C@H]1COCCN1c1nc(-c2cnc(N)cc2C(F)F)nc(N2CCOCC2)n1 , thanks.
3.5

----------
experimental.protocol: AUC (0 to 8 hrs) in C57BL/6J mouse plasma at 50 mg/kg, po administered as single dose by LC-MS analysis
Format: ADME, organism-based
Set-up: dose 50 mg/kg, time < 8 hr, route oral
value.type: AUC(0-t) at 8 h (ng·h/mL)
Report the value in ng·h/mL with no unit label.

Need AUC(0-t) at 8 h of C[C@H]1COCCN1c1nc(-c2cnc(N)cc2C(F)F)nc(N2CCOCC2)n1 , thanks.
27900

----------
experimental.protocol: Cmax in C57BL/6J mouse brain at 50 mg/kg, po administered as single dose after 30 mins by LC-MS analysis
Type: ADME, organism-based
Parameters: dose 50 mg/kg, route oral
value.type: Cmax (ng/mL)
Report the value in ng/mL with no unit label.

Need Cmax of C[C@H]1COCCN1c1nc(-c2cnc(N)cc2C(F)F)nc(N2CCOCC2)n1 , thanks.
12600

----------
experimental.protocol: Toxicity in po dosed female Beagle dog
Format: organism-based, Canis lupus familiaris
measurement.parameters: in vivo
value.type: NOAEL (mg/kg/day)
Report the value in mg/kg/day with no unit label.

Need NOAEL of C[C@H]1COCCN1c1nc(-c2cnc(N)cc2C(F)F)nc(N2CCOCC2)n1 , thanks.
3

----------
experimental.protocol: Toxicity in po dosed female Wistar rat
Format: organism-based
measurement.parameters: in vivo
value.type: NOAEL (mg/kg)
Report the value in mg/kg with no unit label.

Need NOAEL of C[C@H]1COCCN1c1nc(-c2cnc(N)cc2C(F)F)nc(N2CCOCC2)n1 , thanks.
0.5

----------
experimental.protocol: Intrinsic clearance in human hepatocytes assessed per 10^6 cells
Type: ADME, cell-based, Hepatocyte
measurement.parameters: read-out: CLH
value.type: hepatocyte CLint (µL/min/1e6 cells)

1 = CCOc1ccc2ccc(=O)oc2c1
2 = O=c1ccc2ccc(O)cc2o1
3 = C[C@H]1COCCN1c1nc(-c2cnc(N)cc2C(F)F)nc(N2CCOCC2)n1
Please rank everything listed above by hepatocyte CLint, with the minimum value first. Lab note: final answer is the ordered label list.
3, 1, 2
